Form field: LC50 at 24 h (one value per entry).
Assay: Toxicity against Artemia salina after 24 hrs
Type: organism-based
Conditions: in vivo
Return type: number; implicit unit µg/mL.

• CCC(=O)NCCc1c2c3c(ccnc3c3ncsc13)-c1ccccc1N2 = 37

If you can, please state the reported LC50 at 24 h value of CC(=O)NCCc1c2c3c(ccnc3c3ncsc13)-c1ccccc1N2 .
19

====

Biological target: Adenosine receptor A1 (Rattus norvegicus, UniProt P25099)
Sequence (P25099 whole entry): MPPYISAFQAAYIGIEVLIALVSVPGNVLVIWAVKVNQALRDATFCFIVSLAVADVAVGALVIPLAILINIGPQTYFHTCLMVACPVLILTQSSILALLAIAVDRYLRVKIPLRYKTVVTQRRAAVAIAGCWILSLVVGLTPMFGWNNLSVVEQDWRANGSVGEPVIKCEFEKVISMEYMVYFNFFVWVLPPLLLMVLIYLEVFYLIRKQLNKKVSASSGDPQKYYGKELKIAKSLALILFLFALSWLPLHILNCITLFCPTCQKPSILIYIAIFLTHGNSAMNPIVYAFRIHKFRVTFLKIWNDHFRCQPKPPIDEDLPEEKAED
RECORDED_ENDPOINT: pKi
Here pKi is given on a logarithmic scale as minus log10 of the concentration in mol/L.

If you can, please state the reported pKi value of CC(=O)NCCc1c2c3c(ccnc3c3ncsc13)-c1ccccc1N2 .
5.53
